- assayed-target: CLK4 (Homo sapiens)
- Sequence (Q9HAZ1 whole entry): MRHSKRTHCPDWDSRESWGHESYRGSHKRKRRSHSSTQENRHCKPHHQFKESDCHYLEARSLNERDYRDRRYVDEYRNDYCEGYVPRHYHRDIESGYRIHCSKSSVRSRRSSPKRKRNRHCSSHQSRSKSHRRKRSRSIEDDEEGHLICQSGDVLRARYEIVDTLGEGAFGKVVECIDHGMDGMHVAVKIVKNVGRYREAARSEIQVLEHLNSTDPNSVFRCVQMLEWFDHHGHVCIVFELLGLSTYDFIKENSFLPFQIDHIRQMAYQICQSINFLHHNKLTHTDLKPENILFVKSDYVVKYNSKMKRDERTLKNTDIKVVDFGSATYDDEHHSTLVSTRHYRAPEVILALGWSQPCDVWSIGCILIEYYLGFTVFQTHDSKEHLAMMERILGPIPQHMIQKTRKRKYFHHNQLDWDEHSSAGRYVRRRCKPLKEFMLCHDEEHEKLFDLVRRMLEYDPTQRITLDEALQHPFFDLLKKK
Examples of compounds with documented Kd follow.
parameter: Kd (nM)

INSERT INTO results (compound, assayed_target, number) VALUES
  ('c1cncc(-c2cccc(Nc3nccc(NC4CCCCC4)n3)c2)c1 [Compound 1]', 'CLK4 (Homo sapiens)', 690),
  ('CC(C)Nc1ccnc(Nc2cccc(-c3cccnc3)c2)n1 [Compound 5e]', 'CLK4 (Homo sapiens)', 1100);

----------
- Tested on: MV4-11 cells
- protocol-description: MV4-11 cell proliferation
- Assay type: cell-based
- assay-context: Homo sapiens, MV4-11, 72 h, read-out: MV4-11 EC50
pEC50: −log10 of the molar value.
parameter: pEC50

INSERT INTO measurements (compound, result) VALUES
  ('c1cncc(-c2cccc(Oc3nccc(NC4CCCCC4)n3)c2)c1 [Compound 22]', '< 4.85'),
  ('c1cncc(-c2cccc(Nc3cccc(NC4CCCCC4)n3)c2)c1 [Compound 9]', '< 5.00'),
  ('CC(C)(C)c1cc(NC(=O)Nc2ccc(-c3cn4c(n3)sc3cc(OCCN5CCOCC5)ccc34)cc2)no1 [quizartinib, reference compound]', 9.15),
  ('c1cncc(-c2cccc(Nc3nccc(OC4CCCCC4)n3)c2)c1 [Compound 19]', '< 5.22');

----------
- assayed-target: FLT3 (R834Q) (Homo sapiens, UniProt P36888, R834Q)
- Sequence (P36888 27-993 R834Q): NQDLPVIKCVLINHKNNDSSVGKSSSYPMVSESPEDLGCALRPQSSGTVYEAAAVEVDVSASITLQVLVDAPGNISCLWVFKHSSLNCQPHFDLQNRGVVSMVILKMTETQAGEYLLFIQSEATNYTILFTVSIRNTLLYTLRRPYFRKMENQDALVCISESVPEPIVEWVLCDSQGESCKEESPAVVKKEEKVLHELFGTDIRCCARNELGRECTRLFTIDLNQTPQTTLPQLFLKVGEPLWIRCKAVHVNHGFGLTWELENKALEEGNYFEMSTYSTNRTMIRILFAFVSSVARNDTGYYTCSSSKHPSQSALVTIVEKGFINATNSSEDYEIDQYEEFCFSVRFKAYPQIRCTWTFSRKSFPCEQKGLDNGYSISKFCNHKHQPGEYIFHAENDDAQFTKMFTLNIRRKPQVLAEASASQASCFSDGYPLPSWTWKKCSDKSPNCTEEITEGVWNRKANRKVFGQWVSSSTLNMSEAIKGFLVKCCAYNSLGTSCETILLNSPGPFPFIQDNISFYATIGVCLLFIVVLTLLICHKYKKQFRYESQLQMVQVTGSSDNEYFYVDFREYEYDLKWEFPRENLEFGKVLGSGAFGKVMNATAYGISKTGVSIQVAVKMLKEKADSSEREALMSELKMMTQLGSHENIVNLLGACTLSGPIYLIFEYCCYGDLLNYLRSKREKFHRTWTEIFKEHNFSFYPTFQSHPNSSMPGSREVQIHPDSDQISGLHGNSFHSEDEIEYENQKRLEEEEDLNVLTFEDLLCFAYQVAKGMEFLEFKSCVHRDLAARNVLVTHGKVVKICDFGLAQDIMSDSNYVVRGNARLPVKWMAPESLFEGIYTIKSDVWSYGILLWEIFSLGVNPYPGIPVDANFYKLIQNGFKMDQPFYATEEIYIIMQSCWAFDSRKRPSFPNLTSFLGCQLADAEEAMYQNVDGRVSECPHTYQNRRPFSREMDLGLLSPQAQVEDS
- protocol-description: Kd determination
Each record here notes measured Kd.
parameter: Kd (nM)

INSERT INTO results (cpd_smiles, assayed_target, parameter, unit_annotation, qualifier_sign, number) VALUES
  ('CC(C)Nc1ccnc(Nc2cccc(-c3cccnc3)c2)n1', 'FLT3 (R834Q) (Homo sapiens, UniProt P36888, R834Q)', 'Kd', 'nM', '=', 82),
  ('c1cncc(-c2cccc(Nc3nccc(NC4CCCCC4)n3)c2)c1', 'FLT3 (R834Q) (Homo sapiens, UniProt P36888, R834Q)', 'Kd', 'nM', '=', 680),
  ('CC(C)Nc1ccnc(Nc2ccccc2-c2ccccc2)n1', 'FLT3 (R834Q) (Homo sapiens, UniProt P36888, R834Q)', 'Kd', 'nM', '>', 10000);

----------
- assayed-target: TYK2 (JH1 domain-catalytic) (Homo sapiens, UniProt P29597)
- Sequence (P29597 897-1176 limits assumed): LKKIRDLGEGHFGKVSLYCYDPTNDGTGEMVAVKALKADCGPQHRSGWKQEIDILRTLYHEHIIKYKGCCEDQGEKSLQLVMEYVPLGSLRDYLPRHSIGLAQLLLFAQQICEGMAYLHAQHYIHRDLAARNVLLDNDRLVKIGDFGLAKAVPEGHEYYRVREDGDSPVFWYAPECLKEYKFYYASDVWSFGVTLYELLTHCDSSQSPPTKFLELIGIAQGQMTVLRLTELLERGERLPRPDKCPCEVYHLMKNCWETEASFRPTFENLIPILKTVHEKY
- protocol-description: Kd determination
parameter: Kd (µM)

INSERT INTO assay_data (molecule, number) VALUES
  ('CC(C)Nc1ccnc(Nc2cccc(-c3cccnc3)c2)n1 [Compound 5e]', 0.74);

----------
- assayed-target: ABL1 (H396P)-phosphorylated (Homo sapiens, UniProt P00519, H396P)
- protocol-description: Kd determination
pKd: −log10 of the molar value.
parameter: pKd

INSERT INTO assay_data (cpd_smiles, number) VALUES
  ('c1cncc(-c2cccc(Nc3nccc(NC4CCCCC4)n3)c2)c1', 5.68);

----------
- assayed-target: BLK (Homo sapiens)
- Sequence (P51451 whole entry): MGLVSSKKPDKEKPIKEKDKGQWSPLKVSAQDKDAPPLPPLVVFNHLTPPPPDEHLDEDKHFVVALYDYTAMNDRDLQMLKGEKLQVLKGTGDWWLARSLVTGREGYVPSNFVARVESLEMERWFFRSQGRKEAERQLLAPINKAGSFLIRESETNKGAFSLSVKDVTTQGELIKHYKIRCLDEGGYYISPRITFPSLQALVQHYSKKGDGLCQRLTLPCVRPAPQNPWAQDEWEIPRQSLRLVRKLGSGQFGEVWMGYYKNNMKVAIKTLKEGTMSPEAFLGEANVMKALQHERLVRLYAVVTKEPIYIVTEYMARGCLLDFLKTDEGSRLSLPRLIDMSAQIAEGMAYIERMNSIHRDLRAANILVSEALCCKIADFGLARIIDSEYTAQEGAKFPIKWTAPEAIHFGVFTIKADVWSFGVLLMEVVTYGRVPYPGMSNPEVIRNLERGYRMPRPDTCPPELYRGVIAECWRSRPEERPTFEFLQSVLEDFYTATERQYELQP
pKd: −log10 of the molar value.
parameter: pKd

INSERT INTO results (cpd_smiles, number) VALUES
  ('c1cncc(-c2cccc(Nc3nccc(NC4CCCCC4)n3)c2)c1', 5.41);

----------
- assayed-target: recombinant human FLT3 (571–993) (Homo sapiens, UniProt P36888)
- protocol-description: biochemical
- Assay type: biochemical
- assay-context: FLT3 IC50, 2.5 mM ATP
pIC50: −log10 of the molar value.
parameter: pIC50

INSERT INTO measurements (cpd_smiles, assayed_target, parameter, number) VALUES
  ('c1cncc(-c2cccc(Nc3nccc(NC4CCCCC4)n3)c2)c1', 'recombinant human FLT3 (571–993) (Homo sapiens, UniProt P36888)', 'pIC50', 6.94);

----------
- protocol-description: In vivo pharmacokinetic study
- Design: species or system mouse
- assay-context: mice, i.p., 10 mg/kg
parameter: Cmax (nM)

INSERT INTO results (molecule, parameter, unit_annotation, number) VALUES
  ('CC(C)Nc1ccnc(Nc2cccc(-c3cccnc3)c2)n1 [Compound 5e]', 'Cmax', 'nM', 1650);

----------
- protocol-description: Liver microsomal stability
- assay-context: both, human, liver microsomes, pH 7.4
Overview of reported CLint scaled at 4 µM across a group of molecules:
parameter: CLint scaled at 4 µM

INSERT INTO results (molecule, result) VALUES
  ('CC(C)Nc1ccnc(Nc2cccc(-c3cccnc3)c2)n1 [Compound 5e]', '10 mL/min/kg'),
  ('CC(C)Nc1ccnc(Nc2cccc(-c3cnccn3)c2)n1 [Compound 6k]', '14.2 mL/min/kg'),
  ('c1cncc(-c2cccc(Nc3nccc(NC4CCCCC4)n3)c2)c1 [Compound 1]', '26.6 mL/min/kg');

----------
Target protein (sequence): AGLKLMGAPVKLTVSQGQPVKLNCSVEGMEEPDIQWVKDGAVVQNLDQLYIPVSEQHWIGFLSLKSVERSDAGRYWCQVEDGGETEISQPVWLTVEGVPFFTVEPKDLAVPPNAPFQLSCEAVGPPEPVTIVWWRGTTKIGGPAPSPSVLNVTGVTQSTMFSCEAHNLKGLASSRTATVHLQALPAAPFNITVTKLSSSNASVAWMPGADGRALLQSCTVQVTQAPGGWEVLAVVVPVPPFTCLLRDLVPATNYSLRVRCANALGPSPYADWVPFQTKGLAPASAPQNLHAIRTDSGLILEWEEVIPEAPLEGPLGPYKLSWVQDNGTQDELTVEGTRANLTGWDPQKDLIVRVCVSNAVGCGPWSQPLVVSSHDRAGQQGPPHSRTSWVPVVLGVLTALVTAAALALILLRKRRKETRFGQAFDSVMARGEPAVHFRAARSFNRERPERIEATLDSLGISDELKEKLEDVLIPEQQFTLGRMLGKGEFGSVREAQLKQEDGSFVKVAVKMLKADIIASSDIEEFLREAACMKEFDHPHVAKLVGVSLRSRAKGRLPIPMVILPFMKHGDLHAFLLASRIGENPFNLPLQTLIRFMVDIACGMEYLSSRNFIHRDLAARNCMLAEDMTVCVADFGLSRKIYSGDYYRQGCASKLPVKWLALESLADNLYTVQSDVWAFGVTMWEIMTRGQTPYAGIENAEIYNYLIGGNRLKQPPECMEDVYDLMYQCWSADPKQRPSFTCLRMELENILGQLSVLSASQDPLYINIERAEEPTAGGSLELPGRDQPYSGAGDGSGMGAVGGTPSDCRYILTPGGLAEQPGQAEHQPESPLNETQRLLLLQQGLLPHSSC
pKd: −log10 of the molar value.
parameter: pKd

INSERT INTO assay_data (molecule, number) VALUES
  ('c1cncc(-c2cccc(Nc3nccc(NC4CCCCC4)n3)c2)c1 [Compound 1]', 5.57);
